biological target: MPSK1 (Homo sapiens); test: Kinase profiling (radiometric filter-binding); format: biochemical; settings: MPSK1, 1 µM inhibitor; read-out: Residual activity, %
Sequence (O75716 whole entry): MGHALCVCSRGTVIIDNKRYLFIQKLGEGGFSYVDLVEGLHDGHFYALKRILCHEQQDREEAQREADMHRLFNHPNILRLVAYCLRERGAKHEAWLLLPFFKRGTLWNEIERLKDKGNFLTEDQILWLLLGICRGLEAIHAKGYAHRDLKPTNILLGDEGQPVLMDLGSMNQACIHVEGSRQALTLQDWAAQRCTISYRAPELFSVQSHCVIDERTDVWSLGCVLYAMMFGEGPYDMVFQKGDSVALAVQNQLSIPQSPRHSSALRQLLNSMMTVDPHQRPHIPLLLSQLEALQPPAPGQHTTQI
Square brackets hold non-standard residues; d marks the D form. Peptide text beside a SMILES is read from it. * marks the point of attachment. X3 = O=C(CCCCCNCc1nc2c(sc3cc(Br)cnc32)c(=O)[nH]1)*
Test Readout: remaining activity at 1 µM (%)
Give your result in % as a bare value.

Consider the reported remaining activity at 1 µM for these compounds:
Ask: Give reported remaining activity at 1 µM value for N=C(N)NCCC[C@@H](NC(=O)CNC(=O)[C@@H](CCCNC(=N)N)NC(=O)[C@@H](CCCNC(=N)N)NC(=O)Cn1cc(CNCc2nc3c(sc4ccc(Br)cc43)c(=O)[nH]2)nn1)C(=O)N[C@H](CCCCN)C(N)=O [Compound 3, BBTP-Amt-(D-Arg)2-Gly-D-Arg-D-Lys-NH2]
Reply: 110

Ask: # return recorded remaining activity at 1 µM for input N=C(N)NCCC[C@@H](NC(=O)CCCCCNCc1nc2c(sc3cc(Br)cnc32)c(=O)[nH]1)C(=O)N[C@H](CCCNC(=N)N)C(=O)N[C@H](CCCNC(=N)N)C(=O)N[C@H](CCCNC(=N)N)C(=O)N[C@H](CCCNC(=N)N)C(=O)N[C@H](CCCNC(=N)N)C(=O)N[C@H](CCCCN)C(N)=O [ARC-3126, BPTP-Ahx-(D-Arg)6-D-Lys-NH2] (X3-[dR][dR][dR][dR][dR][dR][dK]-NH2)
Reply: 79

Others:
Ask: Report measured remaining activity at 1 µM; entry is N=C(N)NCCC[C@@H](NC(=O)CNC(=O)[C@@H](CCCNC(=N)N)NC(=O)[C@@H](CCCNC(=N)N)NC(=O)CCCCCCCNCc1nc2c(sc3cc(Br)cnc32)c(=O)[nH]1)C(=O)N[C@H](CCCCN)C(N)=O [Compound 1, BPTP-Aoc-(D-Arg)2-Gly-D-Arg-D-Lys-NH2]
Reply: 113

Ask: Answer with reported remaining activity at 1 µM of N=C(N)NCCC[C@@H](NC(=O)CNC(=O)[C@@H](CCCNC(=N)N)NC(=O)[C@@H](CCCNC(=N)N)NC(=O)CCCCCCCNCc1nc2c(sc3ccc(Br)cc32)c(=O)[nH]1)C(=O)N[C@H](CCCCN)C(N)=O [Compound 2, BBTP-Aoc-(D-Arg)2-Gly-D-Arg-D-Lys-NH2]
Reply: 113

Ask: // Input: N=C(N)NCCC[C@@H](NC(=O)CCCCCNC(=O)Cn1cnc2c(I)c(I)c(I)c(I)c21)C(=O)N[C@H](CCCNC(=N)N)C(=O)N[C@H](CCCNC(=N)N)C(=O)N[C@H](CCCNC(=N)N)C(=O)N[C@H](CCCNC(=N)N)C(=O)N[C@H](CCCNC(=N)N)C(=O)N[C@H](CCCCN)C(N)=O [ARC-3125, TIBI-CH2-C(=O)-Ahx-(D-Arg)6-D-Lys-NH2] . Output its remaining activity at 1 µM only.
Reply: 75

###

Below, each entry is listed with its recorded remaining activity at 1 µM.
Target: IKK (Homo sapiens, UniProt O14920)
Sequence (O14920 1-756): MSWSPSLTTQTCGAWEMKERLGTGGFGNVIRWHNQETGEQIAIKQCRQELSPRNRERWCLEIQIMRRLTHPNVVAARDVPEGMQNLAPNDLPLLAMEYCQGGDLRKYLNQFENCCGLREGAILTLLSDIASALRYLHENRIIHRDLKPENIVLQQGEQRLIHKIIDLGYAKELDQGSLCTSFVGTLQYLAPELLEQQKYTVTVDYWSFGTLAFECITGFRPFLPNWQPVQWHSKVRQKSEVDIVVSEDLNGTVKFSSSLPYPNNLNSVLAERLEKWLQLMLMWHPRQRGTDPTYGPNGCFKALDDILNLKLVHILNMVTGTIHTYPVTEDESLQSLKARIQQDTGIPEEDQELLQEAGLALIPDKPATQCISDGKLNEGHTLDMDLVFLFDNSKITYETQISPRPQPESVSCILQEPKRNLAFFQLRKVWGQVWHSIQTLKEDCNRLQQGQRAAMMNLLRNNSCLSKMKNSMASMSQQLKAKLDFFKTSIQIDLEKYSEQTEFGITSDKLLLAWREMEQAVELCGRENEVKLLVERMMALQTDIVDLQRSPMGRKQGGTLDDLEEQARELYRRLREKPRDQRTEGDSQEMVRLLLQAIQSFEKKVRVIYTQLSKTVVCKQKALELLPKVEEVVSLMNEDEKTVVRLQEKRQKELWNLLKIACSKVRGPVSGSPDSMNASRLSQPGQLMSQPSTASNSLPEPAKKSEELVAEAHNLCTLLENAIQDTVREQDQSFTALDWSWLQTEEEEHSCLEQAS
Assay: Kinase profiling (radiometric filter-binding)
Assay type: biochemical
Details: first of two IKK lines (Greek letter lost), 1 µM inhibitor, read-out: Residual activity, %
Square brackets hold non-standard residues; d marks the D form. Peptide text beside a SMILES is read from it. * marks the point of attachment. X3 = O=C(CCCCCNCc1nc2c(sc3cc(Br)cnc32)c(=O)[nH]1)*
Return type: number; implicit unit %.

Ask: Return reported remaining activity at 1 µM. Input compound: "N=C(N)NCCC[C@@H](NC(=O)CNC(=O)[C@@H](CCCNC(=N)N)NC(=O)[C@@H](CCCNC(=N)N)NC(=O)CCCCCCCNCc1nc2c(sc3ccc(Br)cc32)c(=O)[nH]1)C(=O)N[C@H](CCCCN)C(N)=O"
Reply: 100

Ask: Please give the documented remaining activity at 1 µM of "N=C(N)NCCC[C@@H](NC(=O)CCCCCNC(=O)Cn1cnc2c(I)c(I)c(I)c(I)c21)C(=O)N[C@H](CCCNC(=N)N)C(=O)N[C@H](CCCNC(=N)N)C(=O)N[C@H](CCCNC(=N)N)C(=O)N[C@H](CCCNC(=N)N)C(=O)N[C@H](CCCNC(=N)N)C(=O)N[C@H](CCCCN)C(N)=O"
Reply: 80

Now look at this entry.
Ask: Entry N=C(N)NCCC[C@@H](NC(=O)CCCCCNCc1nc2c(sc3cc(Br)cnc32)c(=O)[nH]1)C(=O)N[C@H](CCCNC(=N)N)C(=O)N[C@H](CCCNC(=N)N)C(=O)N[C@H](CCCNC(=N)N)C(=O)N[C@H](CCCNC(=N)N)C(=O)N[C@H](CCCNC(=N)N)C(=O)N[C@H](CCCCN)C(N)=O [ARC-3126, BPTP-Ahx-(D-Arg)6-D-Lys-NH2] (X3-[dR][dR][dR][dR][dR][dR][dK]-NH2) needs its remaining activity at 1 µM filled in; supply it.
Reply: 104
